- TESTED_TARGET: C-RAF (Homo sapiens, UniProt P04049)
- Sequence (P04049 whole entry): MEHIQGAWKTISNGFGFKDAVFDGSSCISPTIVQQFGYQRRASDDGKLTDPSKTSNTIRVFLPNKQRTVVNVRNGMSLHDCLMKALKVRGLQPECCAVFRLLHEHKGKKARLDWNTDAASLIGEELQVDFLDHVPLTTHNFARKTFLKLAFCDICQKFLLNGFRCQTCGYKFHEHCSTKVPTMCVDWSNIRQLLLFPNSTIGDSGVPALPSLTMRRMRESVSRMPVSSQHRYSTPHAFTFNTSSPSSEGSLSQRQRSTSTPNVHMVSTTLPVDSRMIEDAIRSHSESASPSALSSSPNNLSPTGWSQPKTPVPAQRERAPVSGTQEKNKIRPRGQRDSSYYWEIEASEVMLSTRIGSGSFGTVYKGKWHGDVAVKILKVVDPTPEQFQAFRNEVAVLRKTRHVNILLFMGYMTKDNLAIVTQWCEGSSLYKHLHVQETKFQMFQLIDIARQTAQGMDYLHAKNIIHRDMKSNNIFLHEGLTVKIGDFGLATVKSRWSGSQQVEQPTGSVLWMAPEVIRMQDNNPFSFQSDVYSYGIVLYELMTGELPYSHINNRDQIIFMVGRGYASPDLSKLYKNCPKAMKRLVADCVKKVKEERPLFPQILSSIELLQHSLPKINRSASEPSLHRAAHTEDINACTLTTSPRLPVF
- ASSAY_METHOD_TEXT: HotSpot kinase assay (RBC), C-RAF
- ASSAY_CONDITIONS: IC50 C-RAF, 10 µM ATP, 10-dose singlicate IC50 mode
Please provide measured IC50 for the entries that follow.
Numbers only, in nM.

CN1CCN(Cc2ccc(C(=O)Nc3cccc(Nc4ccc5cc(O)ccc5n4)c3)cc2C(F)(F)F)CC1 [Compound 18a] ... 67.6
COc1ccc2nc(Nc3cccc(NC(=O)c4ccc(CN5CCN(C)CC5)c(C(F)(F)F)c4)c3)ccc2c1 [Compound 16a] ... 103
COc1cccc2nc(Nc3cccc(NC(=O)c4ccc(CN5CCCN(C)CC5)c(C(F)(F)F)c4)c3)ccc12 [Compound 14b] ... 192
CCN1CCN(Cc2ccc(C(=O)Nc3cccc(Nc4ccc5c(OC)cccc5n4)c3)cc2C(F)(F)F)CC1 [Compound 14c] ... 182
COc1cccc2nc(Nc3ccc(F)c(NC(=O)c4ccc(CN5CCN(C)CC5)c(C(F)(F)F)c4)c3)ccc12 [Compound 15a] ... 161

Answer for every listed entry: what is its IC50? The entries follow.
1. COc1cccc2nc(Nc3cccc(NC(=O)c4ccc(CN5CCN(C)CC5)c(C(F)(F)F)c4)c3)ccc12 [Compound 14a]
2. CN1CCCN(Cc2ccc(C(=O)Nc3cccc(Nc4ccc5c(O)cccc5n4)c3)cc2C(F)(F)F)CC1 [Compound 17b]
3. CN1CCN(Cc2ccc(C(=O)Nc3cccc(Nc4ccc5c(O)cccc5n4)c3)cc2C(F)(F)F)CC1 [Compound 17a]

Solution:
[151, 65.3, 95]

Hi there! I need IC50 for each item below, if you can.
1. CN1CCCN(Cc2ccc(C(=O)Nc3cccc(Nc4ccc5cc(O)ccc5n4)c3)cc2C(F)(F)F)CC1 [Compound 18b]
2. COc1ccc2nc(Nc3cccc(NC(=O)c4ccc(CN5CCCN(C)CC5)c(C(F)(F)F)c4)c3)ccc2c1 [Compound 16b]

Solution:
1: 161; 2: 164

====

- Tested on: SR
- ASSAY_METHOD_TEXT: NCI-60 five-dose SRB assay
- Format: cell-based
- ASSAY_CONDITIONS: Homo sapiens, Leukemia, five-dose test
Field: GI50. Provide a value for each of the compounds that follow.
Please format your answer as a value with the unit trailing.

# example entries with known answers
CN1CCN(Cc2ccc(C(=O)Nc3cccc(Nc4ccc5cc(O)ccc5n4)c3)cc2C(F)(F)F)CC1 [Compound 18a] ... 2680 nM
COc1ccc2nc(Nc3cccc(NC(=O)c4ccc(CN5CCN(C)CC5)c(C(F)(F)F)c4)c3)ccc2c1 [Compound 16a] ... 1310 nM

Could I get GI50 for every one of these entries?
1. CN1CCN(Cc2ccc(C(=O)Nc3cccc(Nc4ccc5c(O)cccc5n4)c3)cc2C(F)(F)F)CC1 [Compound 17a]
2. COc1cccc2nc(Nc3ccc(F)c(NC(=O)c4ccc(CN5CCN(C)CC5)c(C(F)(F)F)c4)c3)ccc12 [Compound 15a]
3. COc1cccc2nc(Nc3cccc(NC(=O)c4ccc(CN5CCN(C)CC5)c(C(F)(F)F)c4)c3)ccc12 [Compound 14a]
4. CCN1CCN(Cc2ccc(C(=O)Nc3cccc(Nc4ccc5c(OC)cccc5n4)c3)cc2C(F)(F)F)CC1 [Compound 14c]
5. CN1CCCN(Cc2ccc(C(=O)Nc3cccc(Nc4ccc5cc(O)ccc5n4)c3)cc2C(F)(F)F)CC1 [Compound 18b]

Solution:
4390 nM
9830 nM
1850 nM
1870 nM
1890 nM

====

- Test system: NCI-H23
- ASSAY_METHOD_TEXT: NCI-60 five-dose SRB assay
- Format: cell-based
- ASSAY_CONDITIONS: Homo sapiens; NCI-H23, NSCL cancer, five-dose test
ENDPOINT_LABEL: GI50 (nM)
Give bare numbers, in nM.

Example results:
COc1cccc2nc(Nc3cccc(NC(=O)c4ccc(CN5CCCN(C)CC5)c(C(F)(F)F)c4)c3)ccc12 [Compound 14b] ... 1680
CN1CCN(Cc2ccc(C(=O)Nc3cccc(Nc4ccc5c(O)cccc5n4)c3)cc2C(F)(F)F)CC1 [Compound 17a] ... 2260
CCN1CCN(Cc2ccc(C(=O)Nc3cccc(Nc4ccc5c(OC)cccc5n4)c3)cc2C(F)(F)F)CC1 [Compound 14c] ... 2370
COc1ccc2nc(Nc3cccc(NC(=O)c4ccc(CN5CCN(C)CC5)c(C(F)(F)F)c4)c3)ccc2c1 [Compound 16a] ... 5060

Problem: Form field: reported GI50 of COc1cccc2nc(Nc3cccc(NC(=O)c4ccc(CN5CCN(C)CC5)c(C(F)(F)F)c4)c3)ccc12 [Compound 14a]
Solution: 1910

====

- TESTED_TARGET: B-RAF^V600K (Homo sapiens, UniProt P15056, V600K)
- Sequence (P15056 whole entry V600K): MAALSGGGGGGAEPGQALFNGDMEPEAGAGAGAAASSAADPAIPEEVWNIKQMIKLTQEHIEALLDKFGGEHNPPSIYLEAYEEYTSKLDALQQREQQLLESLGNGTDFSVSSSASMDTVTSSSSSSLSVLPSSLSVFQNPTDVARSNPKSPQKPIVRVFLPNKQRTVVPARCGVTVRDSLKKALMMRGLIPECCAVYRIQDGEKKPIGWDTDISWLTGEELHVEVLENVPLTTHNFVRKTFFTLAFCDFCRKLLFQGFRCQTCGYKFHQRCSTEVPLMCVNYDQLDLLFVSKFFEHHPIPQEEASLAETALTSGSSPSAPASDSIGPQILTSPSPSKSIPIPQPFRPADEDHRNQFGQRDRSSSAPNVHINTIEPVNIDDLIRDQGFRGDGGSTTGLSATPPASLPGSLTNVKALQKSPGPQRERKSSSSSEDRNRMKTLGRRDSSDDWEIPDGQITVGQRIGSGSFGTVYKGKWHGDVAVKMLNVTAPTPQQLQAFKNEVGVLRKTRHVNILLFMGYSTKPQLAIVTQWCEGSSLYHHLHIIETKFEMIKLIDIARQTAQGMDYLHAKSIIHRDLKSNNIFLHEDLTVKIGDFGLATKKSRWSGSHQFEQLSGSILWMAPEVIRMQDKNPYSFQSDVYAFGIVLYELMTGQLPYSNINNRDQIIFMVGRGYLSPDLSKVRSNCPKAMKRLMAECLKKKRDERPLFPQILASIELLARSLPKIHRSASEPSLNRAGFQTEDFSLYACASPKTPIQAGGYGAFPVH
- ASSAY_METHOD_TEXT: HotSpot kinase assay (RBC), B-RAF^V600K
- ASSAY_CONDITIONS: 10 µM ATP
ENDPOINT_LABEL: IC50 (nM)
Give bare numbers, in nM.

Problem: What value of measured IC50 is listed for CN1CCCN(Cc2ccc(C(=O)Nc3cccc(Nc4ccc5c(O)cccc5n4)c3)cc2C(F)(F)F)CC1 [Compound 17b] ?
Solution: 61.6

====

- Test system: HT29
- ASSAY_METHOD_TEXT: NCI-60 five-dose SRB assay
- Assay type: cell-based
- ASSAY_CONDITIONS: Homo sapiens, HT-29; HT29, Colon cancer, five-dose test
Mark Y only when GI50 stays strictly below 2000 nM. Values equal to the cut-off are N.

// known answers, use as guide
CN1CCCN(Cc2ccc(C(=O)Nc3cccc(Nc4ccc5cc(O)ccc5n4)c3)cc2C(F)(F)F)CC1 [Compound 18b] ... N
COc1cccc2nc(Nc3cccc(NC(=O)c4ccc(CN5CCCN(C)CC5)c(C(F)(F)F)c4)c3)ccc12 [Compound 14b] ... Y
CN1CCCN(Cc2ccc(C(=O)Nc3cccc(Nc4ccc5c(O)cccc5n4)c3)cc2C(F)(F)F)CC1 [Compound 17b] ... Y
CCN1CCN(Cc2ccc(C(=O)Nc3cccc(Nc4ccc5c(OC)cccc5n4)c3)cc2C(F)(F)F)CC1 [Compound 14c] ... Y
COc1cccc2nc(Nc3cccc(NC(=O)c4ccc(CN5CCN(C)CC5)c(C(F)(F)F)c4)c3)ccc12 [Compound 14a] ... Y

Problem: Here's an entry: COc1ccc2nc(Nc3cccc(NC(=O)c4ccc(CN5CCN(C)CC5)c(C(F)(F)F)c4)c3)ccc2c1 [Compound 16a] . Is its GI50 below 2000 nM?
Solution: Y

Problem: Another compound to look at: COc1cccc2nc(Nc3ccc(F)c(NC(=O)c4ccc(CN5CCN(C)CC5)c(C(F)(F)F)c4)c3)ccc12 [Compound 15a]
Solution: N

Problem: What do you have for CN1CCN(Cc2ccc(C(=O)Nc3cccc(Nc4ccc5cc(O)ccc5n4)c3)cc2C(F)(F)F)CC1 [Compound 18a] ?
Solution: N

====

- Tested on: SF-268
- ASSAY_METHOD_TEXT: NCI-60 five-dose SRB assay
- Assay type: cell-based
- ASSAY_CONDITIONS: Homo sapiens; SF-268, CNS cancer, five-dose test
ENDPOINT_LABEL: GI50 (µM)
Answers are plain numbers, in µM.

Study these solved cases before continuing.
CN1CCN(Cc2ccc(C(=O)Nc3cccc(Nc4ccc5cc(O)ccc5n4)c3)cc2C(F)(F)F)CC1 [Compound 18a] ... 10.4
CCN1CCN(Cc2ccc(C(=O)Nc3cccc(Nc4ccc5c(OC)cccc5n4)c3)cc2C(F)(F)F)CC1 [Compound 14c] ... 2.17
COc1cccc2nc(Nc3cccc(NC(=O)c4ccc(CN5CCN(C)CC5)c(C(F)(F)F)c4)c3)ccc12 [Compound 14a] ... 1.69
COc1cccc2nc(Nc3ccc(F)c(NC(=O)c4ccc(CN5CCN(C)CC5)c(C(F)(F)F)c4)c3)ccc12 [Compound 15a] ... 11.1

Problem: I am curious: what GI50 value has been reported for COc1ccc2nc(Nc3cccc(NC(=O)c4ccc(CN5CCN(C)CC5)c(C(F)(F)F)c4)c3)ccc2c1 [Compound 16a] ?
Solution: 5.2

====

Give GI50 for every item shown.
- System: HOP-92
- ASSAY_METHOD_TEXT: NCI-60 five-dose SRB assay
- Format: cell-based
- ASSAY_CONDITIONS: Homo sapiens; HOP-92, NSCL cancer, five-dose test
Reply with a number, then the unit it belongs to.

COc1ccc2nc(Nc3cccc(NC(=O)c4ccc(CN5CCN(C)CC5)c(C(F)(F)F)c4)c3)ccc2c1 [Compound 16a] ... 1360 nM
COc1cccc2nc(Nc3ccc(F)c(NC(=O)c4ccc(CN5CCN(C)CC5)c(C(F)(F)F)c4)c3)ccc12 [Compound 15a] ... 6640 nM
CN1CCCN(Cc2ccc(C(=O)Nc3cccc(Nc4ccc5cc(O)ccc5n4)c3)cc2C(F)(F)F)CC1 [Compound 18b] ... 10400 nM

Please give GI50, item by item, for the list that follows.
1. COc1cccc2nc(Nc3cccc(NC(=O)c4ccc(CN5CCN(C)CC5)c(C(F)(F)F)c4)c3)ccc12 [Compound 14a]
2. CCN1CCN(Cc2ccc(C(=O)Nc3cccc(Nc4ccc5c(OC)cccc5n4)c3)cc2C(F)(F)F)CC1 [Compound 14c]
3. CN1CCN(Cc2ccc(C(=O)Nc3cccc(Nc4ccc5cc(O)ccc5n4)c3)cc2C(F)(F)F)CC1 [Compound 18a]
4. CN1CCN(Cc2ccc(C(=O)Nc3cccc(Nc4ccc5c(O)cccc5n4)c3)cc2C(F)(F)F)CC1 [Compound 17a]
5. CN1CCCN(Cc2ccc(C(=O)Nc3cccc(Nc4ccc5c(O)cccc5n4)c3)cc2C(F)(F)F)CC1 [Compound 17b]

Solution:
1. 1500 nM
2. 1580 nM
3. 3390 nM
4. 1320 nM
5. 1640 nM
